Tested on: S. pyogenes
Assay: MIC determination, initial screen, S. pyogenes
Type: cell-based
Conditions: Streptococcus pyogenes, ATCC14289; Table 1; ATCC 14289 (initial screen); 24 h, A595
METRIC NAME: MIC

# example entries with known answers
>>> reading("COc1cc2nc(N3CCC(Nc4ccc(C(=O)OC(C)(C)C)cc4)CC3)nc(OC)c2cc1OC")
"< 100 µM"
>>> reading("COc1cc2nc(N3CCC(Nc4ccc(C(=O)O)cc4)CC3)nc(N)c2cc1OC")
"> 25 µM"
>>> reading("COc1cc2nc(N3CCC(Nc4ccc(C(=O)OC(C)(C)C)cc4)CC3)nc(Nc3ccc(C)cc3)c2cc1OC")
"2.5 to 5 µM"
>>> reading("COc1cc2nc(N3CCC(Nc4ccc(C(=O)OC(C)(C)C)cc4)CC3)[nH]c(=O)c2cc1OC")
"> 100 µM"

In: Tell me the measured MIC of `COc1cc2nc(N3CCC(Nc4ccc(C(=O)O)cc4)CC3)[nH]c(=O)c2cc1OC` , please.
Out: > 20 µM

In: Tell me the measured MIC of `CC(C)(C)OC(=O)c1ccc(NC2CCN(c3nc(N)c4ccccc4n3)CC2)cc1` , please.
Out: < 100 µM

In: Tell me the measured MIC of `COC(=O)c1nc(Cl)c(NC2CCN(c3nc(N)c4cc(OC)c(OC)cc4n3)CC2)nc1N` , please.
Out: 12 to 25 µM

In: Tell me the measured MIC of `Nc1nc(N2CCC(Nc3ccc(C(=O)O)cc3)CC2)nc2ccccc12` , please.
Out: > 100 µM

In: Tell me the measured MIC of `COc1cc2nc(N3CCC(Nc4ccc(C(=O)O)cn4)CC3)nc(N)c2cc1OC` , please.
Out: > 20 µM

In: Tell me the measured MIC of `COc1cc2nc(N3CCC(Nc4ccc(C(=O)OC(C)(C)C)cc4)CC3)nc(N)c2cc1OC` , please.
Out: 3 to 6 µM

In: Tell me the measured MIC of `COc1cc2nc(N3CCC(Nc4cnc(C(=O)O)c(N)n4)CC3)nc(N)c2cc1OC` , please.
Out: > 25 µM

In: Tell me the measured MIC of `COC(=O)c1ccc(NC2CCN(c3nc(N)c4cc(OC)c(OC)cc4n3)CC2)nc1` , please.
Out: 25 to 50 µM

In: Tell me the measured MIC of `COc1cc2nc(N3CCC(Nc4ccc(C(=O)O)cc4)CC3)nc(OC)c2cc1OC` , please.
Out: > 20 µM

Data credit: patent US6156758A
